Entry source: ChEMBL document CHEMBL1201862

- Test system: SR
- procedure.details: NCI tumour cell line growth inhibition, 48 h
Activity calls are given as the source filed them. Rule as the data show it: active = GI50 up to about 1.1 µM and inactive = higher. Non-standard residues stand in square brackets, D forms with d. Residues, ends and D or L forms follow the SMILES beside them. ξ: configuration not given here. *: point of attachment. ξF = NC(Cc1ccccc1)C(=O)O; Cbz = O=C(OCc1ccccc1)*
property.label: GI50

Previously resolved entries follow.
- compound: "Cn1c(=O)c2c(nc3n(Cc4ccccc4)c(=O)c(NCCCBr)cn23)n(C)c1=O"
  target.desc: "SR"
  GI50: "23 µM (inactive)"
- compound: "NC1(C(=O)OCc2ccccc2)CCCC1"
  target.desc: "SR"
  GI50: "33.5 µM (inactive)"
- compound: "CCCCCCC(CCl)c1sc(-c2csc(CCNC(=O)OC(C)(C)C)n2)nc1C(=O)OC (stereo unspecified)"
  target.desc: "SR"
  GI50: "3.94 µM (inactive)"

### Prompt So what's the measured GI50 for this one? CC1CC(C)CC(NC2=NCCO2)C1 (stereo unspecified)
### Response > 100 µM (inactive)

### Prompt Also, CCOC(=O)CNC(=O)C(Cc1ccccc1)NC(=O)OCc1ccccc1 (stereo unspecified) (Cbz-[ξF]-Gly-OEt) please.
### Response > 100 µM (inactive)

### Prompt Also, COc1cccc2c1[C@H]1CO[C@H]3C4C[C@H](C(=O)O)C([C@@H](C2)N13)N4C (stereo partly specified) please.
### Response 1.14 µM (inactive)

* * *

- Test system: COLO 205
- procedure.details: NCI tumour cell line growth inhibition, 48 h
The source made the active and inactive calls. Rule as the data show it: active = GI50 up to about 1.1 µM and inactive = higher.
Reported GI50 by item:

- compound: "[O-][n+]1onc2c3nn(-c4ccccc4)nc3ccc21"
  target.desc: "COLO 205"
  assay.result: "61.8 µM (inactive)"
- compound: "O=[N+]([O-])c1cc2c(cc1O)[nH]c1cccc([N+](=O)[O-])c12"
  target.desc: "COLO 205"
  assay.result: "> 100 µM (inactive)"
- compound: "NC1=NC(=O)C(CC(=O)Nc2ccc([N+](=O)[O-])cc2[N+](=O)[O-])S1 (stereo not given)"
  target.desc: "COLO 205"
  assay.result: "> 100 µM (inactive)"
- compound: "CC(=O)NC(CS/N=N/c1[nH]cnc1C(N)=O)C(=O)O (stereo not given)"
  target.desc: "COLO 205"
  assay.result: "7.24 µM (inactive)"
- compound: "C1CNCCNCCNCCN1"
  target.desc: "COLO 205"
  assay.result: "37.5 µM (inactive)"
- compound: "O=C(O)CN1CCN2CCOCCOCCN(CC1)CCN(CC(=O)O)CC2"
  target.desc: "COLO 205"
  assay.result: "> 100 µM (inactive)"
- compound: "COc1ccccc1N/C(SCc1ccccc1)=C(/C(Cl)=C(Cl)Cl)[N+](=O)[O-]"
  target.desc: "COLO 205"
  assay.result: "19.5 µM (inactive)"
- compound: "Cc1cc(O)c2c3c(ccc2c1)C(=O)c1c(O)cccc1C3=O"
  target.desc: "COLO 205"
  assay.result: "3.25 µM (inactive)"
- compound: "O=C(CSCC(=O)N/N=C\\c1ccc(O)c(O)c1O)N/N=C\\c1ccc(O)c(O)c1O"
  target.desc: "COLO 205"
  assay.result: "23.3 µM (inactive)"

Let us examine a further case.
### Prompt So what's the measured GI50 for this one? "Cn1c(=O)c2c(nc3n(Cc4ccccc4)c(=O)c(NCCCBr)cn23)n(C)c1=O"
### Response > 100 µM (inactive)

* * *

As an illustration, consider measured GI50 for compounds on HCT-15.

Previously resolved entries follow.
- compound: "COC1(OC)CCN(Cc2ccccc2)C1=O"
  GI50: "13.4 µM"
- compound: "CCC/N=C/c1c(O)c(O)c(C(C)C)c2cc(C)c(-c3c(C)cc4c(C(C)C)c(O)c(O)c(/C=N/CCC)c4c3O)c(O)c12"
  GI50: "7.46 µM"
- compound: "O=C1CC(C(=O)O)Cc2c(Br)ccc(O)c21 (stereo unspecified)"
  GI50: "> 100 µM"
- compound: "COC(=O)[C@@H](O)[C@]1(C(=O)OC)C2O[C@@H](OC)[C@@H]1CCCCCC[C@H]2O"
  GI50: "> 100 µM"
- compound: "C#C[C@]1(O)[C@@H](CO)O[C@@H](n2ccc(N)nc2=O)[C@@H]1O"
  GI50: "< 0.01 µM"

### Prompt So what's the measured GI50 for this one? "Clc1ccccc1/C=c1\nc(-c2ccccc2)n2c1nc1ccccc12"
### Response > 100 µM

### Prompt Also, "N#CN=C(NCc1ccccc1)NCc1ccccc1" please.
### Response > 40.3 µM

### Prompt Also, COc1cc(S(=O)(=O)Nc2nc(-c3ccc(N4C(=O)C(CC(=O)O)SC4c4ccccc4O)cc3)cs2)ccc1Cl (stereo unspecified) please.
### Response 47.5 µM

### Prompt Also, CN1C(=O)C2(c3ccccc31)C1CC3C(CO1)C1C2C3(CO)CN1C#N (stereo unspecified) please.
### Response > 100 µM

### Prompt Also, O=C(O)OC12CCCCCC1C(=O)C1CCCCC12 (stereo unspecified) please.
### Response 78.2 µM

### Prompt Also, "CCOC(=O)CN1CCS/C1=N/C#N" please.
### Response > 100 µM

* * *

- Tested on: BT-549
- procedure.details: NCI tumour cell line growth inhibition, 48 h
The source made the active and inactive calls. Rule as the data show it: active = GI50 up to about 1.1 µM and inactive = higher.
Reported GI50 by item:

### Prompt So what's the measured GI50 for this one? "COc1ccc2c(c1)c1c(n2CCN2CCCCC2)-c2cccc(OC)c2CC1"
### Response 13.9 µM (inactive)

### Prompt Also, "CCNCCNC(=O)c1ccc(Br)cc1" please.
### Response > 100 µM (inactive)

### Prompt Also, CC(=O)OCC1OC(SC2=N/C(=C\c3cc4c(=O)c5ccccc5sc4s3)C(=O)N2c2ccccc2)C(OC(C)=O)C(OC(C)=O)C1OC(C)=O (centres undefined) please.
### Response 63.8 µM (inactive)

### Prompt Also, CC(=O)O[C@@H]1CC2[C@@H](CCC3Cc4nc5c(nc4C[C@@]32C)CC2CC[C@@H]3C(CC[C@@]4(C)C3CC[C@@H]4C(C)CCCC(C)C)[C@@]2(C)C5)C2C[C@@H]3OC4(CCC(C)CO4)C(C)[C@@H]3[C@]21C (some centres undefined) please.
### Response > 100 µM (inactive)

* * *

- Tested on: NCI-H226
- procedure.details: NCI tumour cell line growth inhibition, 48 h
Activity calls are given as the source filed them. Cut-off read from the data, not from the text of the source: active = GI50 up to about 1.1 µM and inactive = higher. Where a SMILES comes first, the peptide text is derived from it. The star is where a group is joined. Boc = CC(C)(C)OC(=O)*
Choose the fitting class; nothing outside active, inactive is accepted.

Solved cases (5 shown):
- molecule: "CC(C)(C)OC(=O)NC(Cc1ccc(O)cc1)C(=O)N1CCCC1C(=O)O (stereo not drawn) (Boc-Tyr-Pro-OH; configuration not given here)"
  group: "inactive"
- molecule: "O=c1c2cc([N+](=O)[O-])ccc2n2n1Cc1ccccc1C2"
  group: "inactive"
- molecule: "Oc1nc2c(c(-c3ccccc3Cl)n1)COC/C2=C\\c1ccccc1Cl"
  group: "inactive"
- molecule: "CC(=O)CC(=O)CCCC(=O)Nc1ccc(Cl)cc1C"
  group: "inactive"
- molecule: "COC1(OC)CCN(Cc2ccccc2)C1=O"
  group: "inactive"

### Prompt Give the logged outcome of this assay for the following molecule: COc1cccc2c1[C@H]1CO[C@H]3C4C[C@H](C(=O)O)C([C@@H](C2)N13)N4C (stereo not given in full)
### Response inactive

### Prompt Also, "COc1ccc2nc(-c3ccccc3)c(=O)[nH]c2c1" please.
### Response inactive

### Prompt Also, "COc1ccc(/N=C/C=C/Nc2ccc(OC)cc2)cc1" please.
### Response inactive

### Prompt Also, "COC(=O)Nc1nc2cc(Oc3ccc4nc(NC(=O)OC)[nH]c4c3)ccc2[nH]1" please.
### Response active

### Prompt Also, "C=CCN1C[C@H](C)N([C@H](c2ccc(C(=O)N(CC)CCO)cc2)c2cccc(OC)c2)C[C@H]1C" please.
### Response inactive

* * *

Reported GI50 by item:
- System: A549
- procedure.details: NCI tumour cell line growth inhibition, 48 h
Activity calls are given as the source filed them. No stated cut-off is given here; in the data, active = GI50 up to about 1.1 µM and inactive = higher.

Previously resolved entries follow.
- compound: "CSc1nc2ccccc2c(=O)n1-c1cccc(C)c1"
  target.desc: "A549"
  GI50: "94.2 µM (inactive)"
- compound: "CC#C[C@@]1(O)CCCCC1O (some centres not stated)"
  target.desc: "A549"
  GI50: "> 100 µM (inactive)"
- compound: "Clc1ccccc1/C=c1\\nc(-c2ccccc2)n2c1nc1ccccc12"
  target.desc: "A549"
  GI50: "> 100 µM (inactive)"
- compound: "CC1(SCC(N)C(=O)O)CC(=O)NC1=O (configuration not stated)"
  target.desc: "A549"
  GI50: "> 100 µM (inactive)"

### Prompt So what's the measured GI50 for this one? "O=C(NCC(O)CNC(=O)C(F)(F)F)C(F)(F)F"
### Response > 100 µM (inactive)

### Prompt Also, "CC(C)CCn1c(=O)c2c(=O)[nH][nH]c2c2ccccc21" please.
### Response > 100 µM (inactive)
